Assay: Metabolic stability in rat liver microsomes assessed as half life measured upto 30 min by HPLC-MS/MS analysis
Assay type: ADME, Microsome
experimental_readout: half-life (h)
All answers are understood in h, so give the number only.

Query string: So what's the measured half-life for this one? COc1ccc2nc(C)cc(OCC(=O)Nc3ccc(N4CCCCC4)cc3)c2c1
Result string: 2.93

###

Test: Terminal half life in mouse plasma at 25 mg/kg,iv by HPLC analysis
Assay type: ADME, organism-based
Conditions: read-out: beta t1/2
experimental_readout: half-life (h)
All answers are understood in h, so give the number only.

Query string: So what's the measured half-life for this one? COc1ccc2nc(C)cc(OCC(=O)Nc3ccc(N4CCCCC4)cc3)c2c1
Result string: 2.27

###

Assay: Chemical stability of the compound in pH 7.4 PBS assessed as remaining product at 10 uM incubated for 24 hrs by HPLC-MS/MS analysis
Assay type: physicochemical
Conditions: PBS pH 7.4, pH 7.4, read-out: Stability
experimental_readout: remaining at 24 h, 10 µM (%)
All answers are understood in %, so give the number only.

Query string: So what's the measured remaining at 24 h, 10 µM for this one? COc1ccc2nc(C)cc(OCC(=O)Nc3ccc(N4CCCCC4)cc3)c2c1
Result string: 100

###

Assay: Solubility of the compound in PBS at pH 7.4 incubated for 4 hrs by liquid chromatography
Type: physicochemical
Conditions: PBS pH 7.4, pH 7.4
experimental_readout: solubility at 4 h (µM)
All answers are understood in µM, so give the number only.

Query string: So what's the measured solubility at 4 h for this one? COc1ccc2nc(C)cc(OCC(=O)Nc3ccc(N4CCCCC4)cc3)c2c1
Result string: 31.4

###

Assay: Apparent oral volume of distribution in mouse plasma at 121.6 mg/kg,po by HPLC analysis
Format: ADME, organism-based
experimental_readout: Vd/F

Query string: So what's the measured Vd/F for this one? COc1ccc2nc(C)cc(OCC(=O)Nc3ccc(N4CCCCC4)cc3)c2c1
Result string: 0.46 L/kg

###

Test: Clearance in mouse plasma at 25 mg/kg,iv by HPLC analysis
Format: ADME, organism-based
experimental_readout: clearance (mL/min/kg)
All answers are understood in mL/min/kg, so give the number only.

Query string: So what's the measured clearance for this one? COc1ccc2nc(C)cc(OCC(=O)Nc3ccc(N4CCCCC4)cc3)c2c1
Result string: 1.47

###

Assay: Plasma concentration in mouse plasma at 121.6 mg/kg,po measured after 24 hrs by HPLC analysis
Assay type: ADME, organism-based
experimental_readout: concentration at 24 h (ng/mL)
All answers are understood in ng/mL, so give the number only.

Query string: So what's the measured concentration at 24 h for this one? COc1ccc2nc(C)cc(OCC(=O)Nc3ccc(N4CCCCC4)cc3)c2c1
Result string: 1140

###

Experiment: Clearance in mouse plasma at 121.6 mg/kg,po by HPLC analysis
Type: ADME, organism-based
experimental_readout: CL/F (mL/min/kg)
All answers are understood in mL/min/kg, so give the number only.

Query string: So what's the measured CL/F for this one? COc1ccc2nc(C)cc(OCC(=O)Nc3ccc(N4CCCCC4)cc3)c2c1
Result string: 1.92

###

Experiment: Cmax in mouse plasma at 121.6 mg/kg,po by HPLC analysis
Format: ADME, organism-based
Set-up: dose 121.6 mg/kg, route po
experimental_readout: Cmax
Kindly write the number and append the unit.

Query string: So what's the measured Cmax for this one? COc1ccc2nc(C)cc(OCC(=O)Nc3ccc(N4CCCCC4)cc3)c2c1
Result string: 8300 ng/mL

###

Assay: Oral bioavailability in mouse plasma at 121.6 mg/kg by HPLC analysis
Type: ADME, organism-based
experimental_readout: bioavailability (%)
All answers are understood in %, so give the number only.

Query string: So what's the measured bioavailability for this one? COc1ccc2nc(C)cc(OCC(=O)Nc3ccc(N4CCCCC4)cc3)c2c1
Result string: 51

###

Assay: Chemical stability of the compound in pH 1.2 HCL assessed as remaining product at 10 uM incubated for 24 hrs by HPLC-MS/MS analysis
Type: physicochemical
Settings: HCl pH 1.2, pH 1.2, read-out: Stability
experimental_readout: remaining at 24 h, 10 µM (%)
All answers are understood in %, so give the number only.

Query string: So what's the measured remaining at 24 h, 10 µM for this one? COc1ccc2nc(C)cc(OCC(=O)Nc3ccc(N4CCCCC4)cc3)c2c1
Result string: 58.3

###

Assay: Cytotoxicity against African green monkey Vero cells assessed as reduction in cell viability incubated for 72 hrs by MTT assay
Type: toxicity, cell-based
Conditions: chlorocebus sabaeus
The reader will find reported CC50 at 72 h values listed item by item below.

Query string: So what's the measured CC50 at 72 h for this one? CCc1cc(OCC(=O)Nc2ccc(N3CCCCC3)cc2)c2cc(OC)ccc2n1
Result string: > 20 µM

More entries:
Query string: So what's the measured CC50 at 72 h for this one? COc1ccc2nc(C)cc(OCC(=O)Nc3ccc(N4CCCCC4)cc3)c2c1
Result string: > 20 µM

###

Test: Metabolic stability in rat liver microsomes assessed as intrinsic clearance measured upto 30 min by HPLC-MS/MS analysis
Format: ADME, Microsome
Conditions: read-out: CLH
experimental_readout: CLint scaled (mL/min/kg)
All answers are understood in mL/min/kg, so give the number only.

Query string: So what's the measured CLint scaled for this one? COc1ccc2nc(C)cc(OCC(=O)Nc3ccc(N4CCCCC4)cc3)c2c1
Result string: 7.5

###

Assay: Selectivity index, ratio of CC50 for cytotoxicity against human HepG2 cells to MIC for antitubercular activity against Mycobacterium tuberculosis H37Rv
Format: toxicity, cell-based
experimental_readout: selectivity ratio

Query string: So what's the measured selectivity ratio for this one? CCc1cc(OCC(=O)Nc2ccc(N3CCCCC3)cc2)c2cc(OC)ccc2n1
Result string: > 105

Attention now turns to another entry.
Query string: So what's the measured selectivity ratio for this one? COc1ccc2nc(C)cc(OCC(=O)Nc3ccc(N4CCCCC4)cc3)c2c1
Result string: > 222

###

The reader will find reported selectivity ratio values listed item by item below.
Assay: Selectivity index, ratio of CC50 for cytotoxicity against African green monkey Vero cells to MIC for antitubercular activity against Mycobacterium tuberculosis H37Rv
Type: toxicity, cell-based

Query string: So what's the measured selectivity ratio for this one? CCc1cc(OCC(=O)Nc2ccc(N3CCCCC3)cc2)c2cc(OC)ccc2n1
Result string: > 105

Attention now turns to another entry.
Query string: So what's the measured selectivity ratio for this one? COc1ccc2nc(C)cc(OCC(=O)Nc3ccc(N4CCCCC4)cc3)c2c1
Result string: > 222
